- Protocol Description: Human HepG2 cell viability assay in 384 well format
- Format: toxicity, cell-based
- Parameters: dose 125 nL, time 70.5 hour; concentration not given beside the values
- Measurement Parameters: HepG2 cells, read-out: Inhibition
cytotoxicity at 70.5 h reference
Include the unit after the number when you answer.

# example entries with known answers
compound="Cc1cc(CC(C)NC(=O)c2n[nH]c3c2CCC3)n[nH]1 (configuration not stated)" obs_value=3.59%
compound=Cn1cnc(-c2ccc(F)cc2)c1NC(=O)CCNC(=O)C(C)(C)C obs_value=-7.61%
compound=COc1cccc2cc(CNC(=O)N3CCC(C(N)=O)CC3)oc12 obs_value=-8.48%
compound=CCc1cccc(C)c1NC(=O)c1ccccc1N(C)S(C)(=O)=O obs_value=26.1%
compound="CCN1C(=O)CC(N(C)Cc2nc3ccccc3c(=O)[nH]2)C1=O (configuration not stated)" obs_value=-7.75%
compound=O=C(c1cc[nH]n1)N(Cc1cccc(O)c1)CC1CC1 obs_value=-7.41%
compound=N#Cc1cccc(C(=O)N2C[C@H]3CC[C@@H]2CN(C(=O)C2CCC2)C3)c1 obs_value=-4.08%
compound="CC(C)n1ccc(CN2CCOC(CNc3cccnn3)C2)n1 (configuration not stated)" obs_value=3.22%
compound="Cc1csc(C2CCCN(C(=O)c3ccc(=O)n(C)n3)C2)n1 (configuration not stated)" obs_value=-9.44%
compound="CN(C)S(=O)(=O)N1CCCC(c2cccc(Cc3ccccc3F)n2)C1 (configuration not stated)" obs_value=11.4%

Problem: Need cytotoxicity at 70.5 h of O=C(Cn1ncc2c(c1=O)CCCC2)Nc1cccc2[nH]ccc12 , thanks.
Solution: 6.81%

Problem: Need cytotoxicity at 70.5 h of CC(=O)N1CC2C[C@]2(NC(=O)c2ccco2)C1 (some centres not stated) , thanks.
Solution: 18.4%

Problem: Need cytotoxicity at 70.5 h of CN(C(=O)c1cnc(N2CCOCC2)nc1)C1Cc2ccccc2C1 , thanks.
Solution: -12.4%

Problem: Need cytotoxicity at 70.5 h of CCn1cc(Cl)c(C(=O)NCCOC)n1 , thanks.
Solution: -0.484%

Problem: Need cytotoxicity at 70.5 h of COc1ccc2c(c1)OCC(CNC(=O)c1ccc3[nH]nnc3c1)C2 (configuration not stated) , thanks.
Solution: -9.44%

Problem: Need cytotoxicity at 70.5 h of CN(C)S(=O)(=O)N1CC[C@]2(O)CCN(CCc3cccc(F)c3)C[C@@H]2C1 , thanks.
Solution: -11.2%

* * *

- Protocol Description: Human HepG2 cell viability assay in 384 well format
- Format: toxicity, cell-based
- Set-up: dose 125 nL, time 70.5 hour; concentration not given beside the values
- Measurement Parameters: HepG2 cells, read-out: Inhibition
cytotoxicity at 70.5 h reference
Unit % implied. Number only.

# example entries with known answers
compound=O=C(NC1CCCC1)c1cc2c(s1)CCN2C(=O)c1ccccc1 measurement_kind="cytotoxicity at 70.5 h" uom=% obs_value=0.186
compound=CC(C)c1ccc(O)c(C(=O)NCc2cc[nH]n2)c1 measurement_kind="cytotoxicity at 70.5 h" uom=% obs_value=20.8
compound=NC(=O)[C@H]1CCCN1C(=O)c1csc(-c2ccc(C(F)(F)F)cc2)n1 measurement_kind="cytotoxicity at 70.5 h" uom=% obs_value=-6.09
compound=COc1cc(C)nc(N2CCN(C(=O)COC3CCCC3)CC2)n1 measurement_kind="cytotoxicity at 70.5 h" uom=% obs_value=-4.07
compound=c1ccc(-c2noc(CN3CCc4cncnc4C3)n2)nc1 measurement_kind="cytotoxicity at 70.5 h" uom=% obs_value=-9.29
compound=c1cnc(-c2nc(CN3CCCN(Cc4cccs4)CC3)cs2)nc1 measurement_kind="cytotoxicity at 70.5 h" uom=% obs_value=-3.19

Problem: Need cytotoxicity at 70.5 h of O=C1[C@H]2CN(C3CCOCC3)C[C@H]2CN1Cc1cccnc1 , thanks.
Solution: 3.06

Problem: Need cytotoxicity at 70.5 h of COc1cc(N2CCC3(CCCN(Cc4ccccn4)C3)C2)ncn1 (stereo not drawn) , thanks.
Solution: -5.46

Problem: Need cytotoxicity at 70.5 h of CC(C)(NC(=O)c1coc(COc2cccc(F)c2)n1)C(N)=O , thanks.
Solution: -8.32

Problem: Need cytotoxicity at 70.5 h of Cc1ccc(-c2ccc(C(=O)NCCS(N)(=O)=O)c(F)c2)cc1 , thanks.
Solution: -3.69

Problem: Need cytotoxicity at 70.5 h of COCc1cncc2c1CCN(Cc1ccccn1)C2 , thanks.
Solution: -0.455

Problem: Need cytotoxicity at 70.5 h of CS(=O)(=O)N1CCO[C@H]2[C@@H](Oc3ncccc3F)CC[C@@H]21 , thanks.
Solution: -5.41

Problem: Need cytotoxicity at 70.5 h of O=S(=O)(c1cccc(F)c1)N1CCCCC1c1ccn[nH]1 (stereo not drawn) , thanks.
Solution: -7.34

Problem: Need cytotoxicity at 70.5 h of CC(C)(O)CN1CCN(C(=O)c2sccc2C2CC2)CC1 , thanks.
Solution: -6.03

Problem: Need cytotoxicity at 70.5 h of Cc1ccc(C(=O)NS(=O)(=O)Cc2ccccc2)cc1S(C)(=O)=O , thanks.
Solution: -2.97

Problem: Need cytotoxicity at 70.5 h of CN(C)S(=O)(=O)NC1CCCc2c1cnn2-c1ccc(C(C)(C)C)cc1 (stereo not drawn) , thanks.
Solution: -2.4

Problem: Need cytotoxicity at 70.5 h of COCCCC1CCCCN1Cc1cc(F)ccc1-n1cccn1 (stereo not drawn) , thanks.
Solution: 9.72

Problem: Need cytotoxicity at 70.5 h of Cc1ccc(CNC(=O)Nc2nnc(C(C)C)s2)n1C , thanks.
Solution: -4.19

Problem: Need cytotoxicity at 70.5 h of Cc1cccc(S(=O)(=O)NC2CCN(CC(F)(F)F)C2)c1 (stereo not drawn) , thanks.
Solution: -15.5

Problem: Need cytotoxicity at 70.5 h of COCCN1C(=O)[C@H]2CC[C@@H]1CN(S(=O)(=O)c1cccc(Cl)c1)C2 , thanks.
Solution: 17.8

Problem: Need cytotoxicity at 70.5 h of COc1cccc(CNC(=O)C(C)n2ccnc2C(C)C)c1OC (stereo not drawn) , thanks.
Solution: 23.8

Problem: Need cytotoxicity at 70.5 h of CC(C)N(C)C(=O)C1CSCN1S(=O)(=O)c1cccs1 (stereo not drawn) , thanks.
Solution: -8.56

Problem: Need cytotoxicity at 70.5 h of Cc1cc(C)c2nc(CNC3CCNC3=O)cc(O)c2c1 (stereo not drawn) , thanks.
Solution: -3.2

Problem: Need cytotoxicity at 70.5 h of O=C1COC2(COCCN(Cc3cccnc3)C2)CN1c1ccccc1 (stereo not drawn) , thanks.
Solution: -0.932

Problem: Need cytotoxicity at 70.5 h of CN1CCCC(c2nccnc2-c2cccc(C(F)(F)F)c2)C1 (stereo not drawn) , thanks.
Solution: -0.583

Problem: Need cytotoxicity at 70.5 h of N#Cc1ccccc1NC(=O)c1ccc2c(c1)OCO2 , thanks.
Solution: -0.874
